# assay target: CYP17A1 (Homo sapiens)
# Construct: immortalised human adrenal cells expressing CYP17A1 and other steroidogenic enzymes; endogenous in cells; host or cells: NCI-H295R (human adrenal cells)
# assay details: CYP17A1 activity calculated as ratios of steroid products to substrates (LC-MS)
# Assay type: cell-based
# measurement setup: normalised to DMSO-treated cells (100%), NCI-H295R
Threshold check on 17α-Hydroxylase activity (ratios of steroid products to substrates): strictly below 2% is t; on or above 2% is f.

Take a look at these entries with their results.
c1cc(-c2ccncc2)cc(-c2ccc3[nH]ccc3c2)c1 [Compound 14, 5-(3-(Pyridin-4-yl)phenyl)-1H-indole] ... t
N#Cc1c(-c2ccncc2)cc(-c2ccc3[nH]ccc3c2)c(C#N)c1N [Compound 11] ... t
CCCn1nnc2cc(-c3cc(-c4ccncc4)c(C#N)c(N)n3)ccc21 [Compound 1] ... t
N#Cc1c(-c2ccncc2)cc(-c2ccc3[nH]ccc3c2)nc1N [Compound 5] ... t

Consider the record given below.
Input C[C@]12CC[C@H](O)CC1=CC[C@@H]1[C@@H]2CC[C@]2(C)C(c3cccnc3)=CC[C@@H]12 [ABT, abiraterone, reference compound] ; condition: 17α-Hydroxylase activity (ratios of steroid products to substrates) strictly below 2%. Does it hold? f

---

Each item that follows carries a reported 11-Deoxycortisol, Mean.
# Test system: adrenal steroidogenesis in NCI-H295R cells
# assay details: Steroid profiling by LC-MS in NCI-H295R cells
# Format: cell-based, human
# measurement setup: compounds at 10 µM, 1 µM pregnenolone, DMSO 26.594

CCCn1nnc2cc(-c3cc(-c4ccncc4)c(C#N)c(N)n3)ccc21 ... 5.22 nmol/L
N#Cc1c(-c2ccncc2)cc(-c2ccc3[nH]ccc3c2)nc1N ... 4.0415 nmol/L
N#Cc1c(-c2ccncc2)cc(-c2ccc3[nH]ccc3c2)c(C#N)c1N ... 3.942 nmol/L

# ---- query compound ----
Answer with the recorded 11-Deoxycortisol, Mean for the compound listed here: C[C@]12CC[C@H](O)CC1=CC[C@@H]1[C@@H]2CC[C@]2(C)C(c3cccnc3)=CC[C@@H]12 [ABT, abiraterone, reference compound] 3.585 nmol/L

---

# assay target: CYP17A1 (Homo sapiens, UniProt P05093)
# Construct: immortalised human adrenal cells expressing CYP17A1 and other steroidogenic enzymes; endogenous in cells; host or cells: NCI-H295R (human adrenal cells)
# assay details: CYP17A1 17α-hydroxylase activity assay in NCI-H295R cells ([14C]-progesterone, TLC)
# Format: cell-based
# measurement setup: 4 h, DMSO = 100, read-out: CYP17A1 Hydroxylase activity, Mean (percentage of activity remaining relative to the control)
# Protocol: Human adrenal NCI-H295R cells are an established model for assay of CYP17A1 activities. The NCI-H295R cells were seeded in 12-well plates at 500 000 cells per well and incubated overnight. […] TLC spots were visualised on a phosphor screen and detected by autoradiography using a Typhoon™ FLA-7000 PhosphorImager (GE Healthcare, Uppsala, Sweden). […] Percent inhibition was calculated relative to control samples.
measurement kind: remaining activity at 10 µM (%)
Note: unit % is implicit; provide only the numeric part.

N#Cc1c(-c2cccnc2)cc(-c2ccccc2)nc1N [Compound 4] ... 71
CCCn1nnc2cc(-c3cc(-c4ccncc4)c(C#N)c(N)n3)ccc21 [Compound 1] ... 45
N#Cc1c(-c2ccccc2)cc(-c2ccncc2)c(C#N)c1N [Compound 6] ... 53

Answer with the recorded remaining activity at 10 µM for the compound listed here: CCCn1nnc2cc(-c3cc(-c4ccncc4)c(C#N)c(N)c3C#N)ccc21 [Compound 10] 32

Answer with the recorded remaining activity at 10 µM for the compound listed here: c1cncc(-c2cccc(-c3ccc4[nH]ccc4c3)c2)c1 [Compound 12, 5-(3-(Pyridin-3-yl)phenyl)-1H-indole] 46

---

# assay target: CYP17A1 (Homo sapiens)
# Construct: immortalised human adrenal cells expressing CYP17A1 and other steroidogenic enzymes; endogenous in cells
# assay details: CYP17A1 17,20-lyase activity assay in NCI-H295R cells (tritiated water release)
# measurement setup: dose-response, read-out: IC50, inhibition of 17,20-lyase activity
Each item that follows carries a reported IC50.
Note: unit nM is implicit; provide only the numeric part.

Example entries and their recorded answers appear below.
CCCn1nnc2cc(-c3cc(-c4ccncc4)c(C#N)c(N)n3)ccc21 ... 10
N#Cc1c(-c2ccncc2)cc(-c2ccc3[nH]ccc3c2)c(C#N)c1N ... 4
c1cc(-c2ccncc2)cc(-c2ccc3[nH]ccc3c2)c1 ... 26

# ---- query molecule ----
Answer with the recorded IC50 for the molecule listed here: `N#Cc1c(-c2ccncc2)cc(-c2ccc3[nH]ccc3c2)nc1N` 25

---

# Test system: DU-145 cells
# assay details: Scratch (wound healing) assay
# Assay type: cell-based, human
# measurement setup: DU-145, 10 µM, 24 h; DMSO 170.5
Threshold check on Wound area, Mean (area remaining open): strictly below 2000 Pixels^2 is Y; on or above 2000 Pixels^2 is N.

CCCn1nnc2cc(-c3cc(-c4ccncc4)c(C#N)c(N)n3)ccc21 [Compound 1] ... Y

Input c1cc(-c2ccncc2)cc(-c2ccc3[nH]ccc3c2)c1 [Compound 14, 5-(3-(Pyridin-4-yl)phenyl)-1H-indole] ; condition: Wound area, Mean (area remaining open) strictly below 2000 Pixels^2. Does it hold? N

Input C[C@]12CC[C@H](O)CC1=CC[C@@H]1[C@@H]2CC[C@]2(C)C(c3cccnc3)=CC[C@@H]12 [ABT, abiraterone, reference compound] ; condition: Wound area, Mean (area remaining open) strictly below 2000 Pixels^2. Does it hold? Y

Input N#Cc1c(-c2ccncc2)cc(-c2ccc3[nH]ccc3c2)c(C#N)c1N [Compound 11] ; condition: Wound area, Mean (area remaining open) strictly below 2000 Pixels^2. Does it hold? N

Input N#Cc1c(-c2ccncc2)cc(-c2ccc3[nH]ccc3c2)nc1N [Compound 5] ; condition: Wound area, Mean (area remaining open) strictly below 2000 Pixels^2. Does it hold? Y

---

# Test system: adrenal steroidogenesis in NCI-H295R cells
# assay details: Steroid profiling by LC-MS in NCI-H295R cells
# Assay type: cell-based, human
# measurement setup: compounds at 10 µM, 1 µM pregnenolone, DMSO 15.119
Each item that follows carries a reported DHEA, Mean.
Note: unit nmol/L is implicit; provide only the numeric part.

c1cc(-c2ccncc2)cc(-c2ccc3[nH]ccc3c2)c1 ... 0.6075
CCCn1nnc2cc(-c3cc(-c4ccncc4)c(C#N)c(N)n3)ccc21 ... 1.1015
N#Cc1c(-c2ccncc2)cc(-c2ccc3[nH]ccc3c2)nc1N ... 0.748

# ---- query compound ----
Answer with the recorded DHEA, Mean for the compound listed here: C[C@]12CC[C@H](O)CC1=CC[C@@H]1[C@@H]2CC[C@]2(C)C(c3cccnc3)=CC[C@@H]12 [ABT, abiraterone, reference compound] 2.775

---

# assay target: CYP17A1 (Homo sapiens, UniProt P05093)
# Construct: immortalised human adrenal cells expressing CYP17A1 and other steroidogenic enzymes; endogenous in cells; host or cells: NCI-H295R (human adrenal cells)
# assay details: CYP17A1 17,20-lyase activity assay in NCI-H295R cells (tritiated water release)
# Format: cell-based
# measurement setup: 4 h, DMSO = 100, read-out: CYP17A1 Lyase activity, Mean (percentage of activity remaining relative to the control)
Threshold check on remaining activity at 10 µM: strictly below 50% is YES; on or above 50% is NO.

N#Cc1c(-c2ccncc2)cc(-c2cccnc2)c(C#N)c1N ... NO
N#Cc1c(-c2cccnc2)cc(-c2ccccc2)nc1N ... NO
CCCn1nnc2cc(-c3cc(-c4ccncc4)c(C#N)c(N)c3C#N)ccc21 ... NO
c1cc(-c2ccc(-c3ccc4[nH]ccc4c3)cc2)ccn1 ... NO
N#Cc1c(-c2ccccc2)cc(-c2cccnc2)nc1N ... NO

Input `N#Cc1c(-c2ccccc2)cc(-c2ccncc2)c(C#N)c1N` ; condition: remaining activity at 10 µM strictly below 50%. Does it hold? NO

Input `CCCn1nnc2cc(-c3cc(-c4ccncc4)c(C#N)c(N)n3)ccc21` ; condition: remaining activity at 10 µM strictly below 50%. Does it hold? YES

Input `N#Cc1c(-c2ccncc2)cc(-c2ccc3[nH]ccc3c2)nc1N` ; condition: remaining activity at 10 µM strictly below 50%. Does it hold? YES

Input C[C@]12CC[C@H](O)CC1=CC[C@@H]1[C@@H]2CC[C@]2(C)C(c3cccnc3)=CC[C@@H]12 [ABT, abiraterone, reference compound] ; condition: remaining activity at 10 µM strictly below 50%. Does it hold? YES

Input `c1cncc(-c2ccc(-c3ccc4[nH]ccc4c3)cc2)c1` ; condition: remaining activity at 10 µM strictly below 50%. Does it hold? NO

---

Each item that follows carries a reported remaining activity at 10 µM.
# assay target: CYP17A1 (Homo sapiens)
# Construct: immortalised human adrenal cells expressing CYP17A1 and other steroidogenic enzymes; endogenous in cells; host or cells: NCI-H295R (human adrenal cells)
# Sequence (P05093 1-508): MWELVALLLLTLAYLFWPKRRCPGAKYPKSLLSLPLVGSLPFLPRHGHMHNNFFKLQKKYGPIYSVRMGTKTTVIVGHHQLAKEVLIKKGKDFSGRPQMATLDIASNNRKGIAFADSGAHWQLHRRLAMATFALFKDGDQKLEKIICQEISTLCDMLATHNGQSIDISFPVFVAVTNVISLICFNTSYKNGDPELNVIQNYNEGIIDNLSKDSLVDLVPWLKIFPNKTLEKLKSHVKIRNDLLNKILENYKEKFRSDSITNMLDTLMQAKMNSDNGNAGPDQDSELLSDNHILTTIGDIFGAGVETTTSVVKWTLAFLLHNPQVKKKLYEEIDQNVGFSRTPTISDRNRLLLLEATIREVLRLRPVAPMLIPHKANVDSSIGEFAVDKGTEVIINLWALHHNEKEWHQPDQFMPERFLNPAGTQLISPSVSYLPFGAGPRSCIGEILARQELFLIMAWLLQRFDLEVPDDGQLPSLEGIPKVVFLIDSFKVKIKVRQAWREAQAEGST
# assay details: CYP17A1 17α-hydroxylase activity assay in NCI-H295R cells ([14C]-progesterone, TLC)
# Type: cell-based
# measurement setup: 4 h, DMSO = 100, read-out: CYP17A1 Hydroxylase activity, Mean (percentage of activity remaining relative to the control)
Note: unit % is implicit; provide only the numeric part.

Example entries and their recorded answers appear below.
N#Cc1c(-c2ccncc2)cc(-c2ccc3[nH]ccc3c2)c(C#N)c1N ... 10
c1cc(-c2ccncc2)cc(-c2ccc3[nH]ccc3c2)c1 ... 35
N#Cc1c(-c2cccnc2)cc(-c2cccnc2)c(C#N)c1N ... 96
N#Cc1c(-c2ccccc2)cc(-c2ccccc2)nc1N ... 67

Answer with the recorded remaining activity at 10 µM for the molecule listed here: `c1cncc(-c2ccc(-c3ccc4[nH]ccc4c3)cc2)c1` 76

Answer with the recorded remaining activity at 10 µM for the molecule listed here: `N#Cc1c(-c2ccncc2)cc(-c2ccncc2)c(C#N)c1N` 103

Answer with the recorded remaining activity at 10 µM for the molecule listed here: `N#Cc1c(-c2ccncc2)cc(-c2cccnc2)c(C#N)c1N` 63

Answer with the recorded remaining activity at 10 µM for the molecule listed here: C[C@]12CC[C@H](O)CC1=CC[C@@H]1[C@@H]2CC[C@]2(C)C(c3cccnc3)=CC[C@@H]12 [ABT, abiraterone, reference compound] 14

Answer with the recorded remaining activity at 10 µM for the molecule listed here: `c1cc(-c2ccc(-c3ccc4[nH]ccc4c3)cc2)ccn1` 87

Answer with the recorded remaining activity at 10 µM for the molecule listed here: `N#Cc1c(-c2ccccc2)cc(-c2cccnc2)nc1N` 84

Answer with the recorded remaining activity at 10 µM for the molecule listed here: `N#Cc1c(-c2ccncc2)cc(-c2ccc3[nH]ccc3c2)nc1N` 20
